Test system: NOMO1
run_description: cell viability relative to DMSO control; higher = less cytotoxic
run_parameters: HPLM + 10% dialyzed FBS; 48 h; 0.0211 µM
observable: cell viability (%)
Answer with a number only, understood to be in %.

Input: Please supply the value of reported cell viability for the item CC(C)(OCc1nn(Cc2ccccc2)c2ccccc12)C(=O)O
Output: 116

Input: Please supply the value of reported cell viability for the item CN(C)c1ccccc1CN1CCCN(Cc2ccccc2N(C)C)C1c1ccncc1
Output: 29.8

Input: Please supply the value of reported cell viability for the item CNCCN(C)Cc1c[nH]nc1-c1ccc(O[C@H]2C[C@H](OCCC3CCOCC3)C2)cc1
Output: 150

Input: Please supply the value of reported cell viability for the item N[S+](=O)([O-])c1cc2c(cc1Cl)NCN[S+]2(=O)[O-]
Output: 109

Input: Please supply the value of reported cell viability for the item CN1CCN(CC1)C/2=N/C3=CC=CC=C3NC4=C2C=C(C)S4
Output: 109

Input: Please supply the value of reported cell viability for the item OCCN1CCN(CCCN2c3ccccc3Sc3ccc(C(F)(F)F)cc32)CC1
Output: 122

Input: Please supply the value of reported cell viability for the item CN1C(=O)C(=C/2N(C(=O)N(C3CC3)C(=O)C2=C1/NC4=CC=C(I)C=C4F)C5=CC=CC(=C5)NC(C)=O)\C
Output: 99.3

Input: Please supply the value of reported cell viability for the item NC/1=N/C(=O)C2=C([NH]C=C2CCC3=CC=C(C=C3)C(=O)N[C@@H](CCC(O)=O)C(O)=O)N1
Output: 104

Input: Please supply the value of reported cell viability for the item O=P1(NCCCl)OCCCN1CCCl (centres undefined)
Output: 104

###

System: SEM cells
run_description: cell viability relative to DMSO control; higher = less cytotoxic
run_parameters: HPLM + 10% dialyzed FBS; 48 h; 15.4 µM
observable: cell viability (%)
Answer with a number only, understood to be in %.

1) Cc1n[nH]c(C)c1Cc1sc2c(c1C(=O)N1C[C@H](O)CO1)c(=O)n(C)c(=O)n2CC(C)C :: 58.4
2) NC(=O)Cc1cccc(C(=O)c2ccccc2)c1N :: 101
3) CN1\C(=C(O)/C2=C(C=C(Cl)S2)[S+]1([O-])=O)C(=O)NC3=NC=CC=C3 :: 101

Input: Look up SEM cells data: cell viability of CCOC(=O)c1c(/C(C#N)=C\N)c2ccc(Cl)c(Cl)c2n1C , then report it.
Output: 83.4

Input: Look up SEM cells data: cell viability of N[C@@H](Cc1ccc(N(CCCl)CCCl)cc1)C(=O)O , then report it.
Output: 18.3

###

System: NOMO1
run_description: cell viability relative to DMSO control; higher = less cytotoxic
run_parameters: RPMI 5 mM glucose + 10% FBS; 48 h; 0.00702 µM
observable: cell viability
Quick note: number first, unit second.

1. O=C1C(CCC(O)c2ccc(F)cc2)C(c2ccc(O)cc2)N1c1ccc(F)cc1 (stereo not drawn) :: 108%
2. COC1=CC(=C2C(=O)N(COC/3=C/C(=O)N4\C=C/C=C(OCCN5CCCCC5)\C4=N3)[S+]([O-])(=O)C2=C1)C(C)C :: 127%
3. COc1cc([S+](C)(=O)[O-])ccc1Nc1nc2ccc(-c3ccc(NC(=O)[C@H](C)c4ccc(F)cc4)cc3)cn2n1 :: 122%
4. CN1CCC(=C2c3ccccc3CCc3sccc32)CC1 :: 104%
5. Cc1cc(-c2ccc(CC(=O)Nc3ccc(-c4cccnc4)cc3)cc2)ccn1 :: 108%
6. CC(C)N(CCCNC(=O)Nc1ccc(C(C)(C)C)cc1)C[C@H]1O[C@@H](n2cc(Br)c3c(N)ncnc32)[C@H](O)[C@@H]1O :: 88.7%
7. N[S+](=O)([O-])c1cc2c(cc1Cl)NCN[S+]2(=O)[O-] :: 114%
8. CN1C(=O)\C(=C/C2=C1N=C(NC3CCOCC3)N=C2)OC4=C(F)C=C(F)C=C4 :: 88.4%

Input: Please supply the value of reported cell viability for the item Oc1ccc(-c2nc(-c3ccncc3)c(-c3ccc(F)cc3)[nH]2)cc1
Output: 106%

Input: Please supply the value of reported cell viability for the item NC(=O)c1c(OCc2c(F)cc(Br)cc2F)nsc1NC(=O)NCCCCN1CCCC1
Output: 115%

Input: Please supply the value of reported cell viability for the item Cc1ccc([S+](=O)([O-])NC(=O)NN2CC3CCCC3C2)cc1 (stereo not drawn)
Output: 105%

Measured values drawn from the supplement of paper PMC11451515 for this set.
